Test system: HPV-16
Experiment: qPCR sensitivity against HPV-HNSCC tumor samples diluted among 10 ng normal human DNA
Conditions: Sample # 12
OBSERVATION_TYPE: Threshold of tumor cell numbers for HPV-16 detection (tumor cells)
Report the figure in tumor cells without appending any unit label.

molecule BR E1-5: HPV-16 E1 region primer/probe set, SEQ ID NO: 40-42 (same as SEQ ID NO: 1-3) (nucleic acid, chemistry not given here) DNA 1: GCACAATTGGCAGACACTAAT DNA 2: GCACAATCCTTTACAATTTTTGCC DNA 3: AGTAATGCAAGTGCCTTTCTAAAAAGTAATTC , Threshold of tumor cell numbers for HPV-16 detection observed: 30.0

The reported value for E7: previously designed (historical) HPV-16 E7 primers and Taqman probe, SEQ ID NO: 10-12; part of CLIA test (nucleic acid, Taqman probe, labels not given here, part of CLIA test) DNA 1: CCGGACAGAGCCCATTACAA DNA 2: CGAATGTCTACGTGTGTGCTTTG DNA 3: CGCACAACCGAAGCGTAGAGTCACACT in terms of Threshold of tumor cell numbers for HPV-16 detection is 30.0

These entries and their values trace back to patent US20200399712A1.
